Read-out: Transforming growth factor beta 1 (TGFb1), TGFB1 (gene 7040)
testSummary: BSK_BE3C_TGFb1: BioMAP Diversity Plus: BE3C Assay for Transforming growth factor beta 1 (TGFb1) Biomarker Activity (AID 2283036)
conditionDescription: primary human bronchial epithelial cells; actives raise or lower the signal
The source made the active and inactive calls. Rule for the calls: active = hit-call score of the fitted dose curve at least 0.9, where 1 is the maximum; inactive = score below 0.9.
Outcomes you can answer with include only these: T = active, F = inactive

[
  {
    "compound": "CCc1ccc(CCOc2ccc(CC3SC(=O)NC3=O)cc2)nc1 (stereo unspecified)",
    "answerLabel": "F"
  }
]

I'd appreciate the recorded outcome for `CN1CCN(c2ccccc2/C=C2\SCCN(c3ccc(Cl)c(Cl)c3)C2=O)CC1` from this test.
T

Also NC(=O)N1C(=O)C(C(=O)c2cc(Cl)cs2)c2cc(F)c(Cl)cc21 (stereo unspecified) , if possible.
T

// repeat for `Oc1cc2ccccc2c2ccccc12` and report
T

Also need CC(O)CO (stereo unspecified) , thanks.
F

Same thing, different compound: `CCCOC(=O)c1ccc(O)cc1`
F

And then `CCCCCCCCC(=O)O` , what is it?
F

Then `CCCCCCCCCCCCN1CCCC1=O` ?
T

Another compound to check: `c1ccc2cc3c(ccc4ccccc43)cc2c1`
F

Next compound: `CCCCCCC(=O)O`
F

Would you kindly repeat that for `Cc1oc(-c2ccccc2)nc1CCOc1ccc(C[C@H](Nc2ccccc2C(=O)c2ccccc2)C(=O)O)cc1` ?
T

* * *

testSummary: APR_HepG2_MicrotubuleCSK_72hr: Apredica 72-hour HepG2 Assay for Microtubule CSK Stabilty (AID 2282919)
conditionDescription: HepG2 microtubule cytoskeleton, high-content imaging, actives raise or lower the signal
Calls of active or inactive are those of the source. The calls were made as follows: active = hit-call score of the fitted dose curve at least 0.9, where 1 is the maximum; inactive = score below 0.9.
Write down the outcome that applies. Available outcomes: T for active, F for inactive

# example entries with known answers
[
  {
    "compound": "CC(C)(C)CC(C)(C)c1ccc(O)c(-n2nc3ccccc3n2)c1",
    "answerLabel": "T"
  },
  {
    "compound": "O=C(/C=C/c1ccc(O)cc1)CC(=O)/C=C/c1ccc(O)cc1",
    "answerLabel": "F"
  },
  {
    "compound": "CN1CCC[C@H]1c1cccnc1",
    "answerLabel": "F"
  }
]

# fetch the recorded call for CCc1nn(C2CCCCC2)c2cc(C3(C#N)CCC(C(=O)O)CC3)ccc12 (centres undefined) here
F

Moving on to the next compound: `CCN(CC)CCNc1ccc(CNC=O)c2sc3ccc(OC)cc3c(=O)c12`
F

Field entry: `CN(C)C=O`
F

Now the same for `CCCCCCCCCCCCN1CCCC1=O`
T

Param item: `CC(C)(C)c1ccc(O)c(C(C)(C)C)c1`
F

Also `C#C[C@]1(O)CC[C@H]2[C@@H]3CCC4=CC(=O)CC[C@@H]4[C@H]3CC[C@@]21C` ?
F

Quick one: `CCCOC(=O)c1ccc(O)cc1`
F

For `Cc1oc(-c2ccccc2)nc1CCOc1ccc(C[C@H](Nc2ccccc2C(=O)c2ccccc2)C(=O)O)cc1` then?
F

Try this compound too: CC(O)CO (centres undefined)
F

Here is the next compound: `c1ccc2c(c1)ccc1ccccc12`
F

Now consider `CC(=O)CC(C)(C)O` and answer again.
T

Next: CCCCC(CC)COC(=O)CCCCC(=O)OCc1ccccc1 (centres undefined)
F

`CC(C)(C)c1cc(C(C)(C)C)c(O)c(C(C)(C)C)c1` ?
F

Another: `CCCOc1sc(C(=O)N2CCC(c3cc(CN)ccc3F)CC2)c(C)c1Br`
T

How about COCC(C)OCC(C)O (centres undefined) ?
F

Input OC1CCC(C2CCCCC2)CC1 (centres undefined)
F

* * *

Read-out: matrix metalloproteinase-10 (MMP10), MMP10 (gene 4319)
testSummary: LTEA_HepaRG_MMP10: Life Technologies and Expression Analysis (LTEA) Assay for matrix metalloproteinase-10 (MMP10) using HepaRG (AID 2283517)
conditionDescription: mRNA level, 48 h; actives raise or lower the signal
Calls of active or inactive are those of the source. Rule for the calls: active = hit-call score of the fitted dose curve at least 0.9, where 1 is the maximum; inactive = score below 0.9.
// classify into 1 (yes) for active, 0 (no) for inactive

[
  {
    "smilesRecord": "O=C(O)Cc1cc(I)c(Oc2cc(I)c(O)c(I)c2)c(I)c1",
    "answerLabel": "1 (yes)"
  },
  {
    "smilesRecord": "CC[C@H](c1ccc(O)cc1)[C@@H](CC)c1ccc(O)cc1",
    "answerLabel": "0 (no)"
  },
  {
    "smilesRecord": "NC(=O)N(O)[C@@H]1C=C[C@H](Oc2cccc(Oc3ccc(F)cc3)c2)C1",
    "answerLabel": "1 (yes)"
  }
]

Pending molecule:
Dear all, I need the recorded test outcome for `CC#C[C@]1(O)CC[C@H]2[C@@H]3CCC4=CC(=O)CCC4=C3[C@@H](c3ccc(N(C)C)cc3)C[C@@]21C` , thank you.
1 (yes)

* * *

testSummary: TOX21_p53_BLA_p3_viability: Viability Assessment in the Tox21 HCT-116 p53 Agonism Beta-lactamase Assay, Phase 3 (AID 2283593);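 note: cells exposed to compound for 16 h before reading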
Inconclusive results are not listed. The source made the active and inactive calls. How the source made its calls: active means hit-call score of the fitted dose curve at least 0.9, where 1 is the maximum; inconclusive means response in the unintended direction; inactive means score below 0.9.

[
  {
    "smilesRecord": "CC(C)(C)c1cccc(C(C)(C)C)c1O",
    "outcome": "inactive"
  },
  {
    "smilesRecord": "CC(C)(C)c1cc(C(C)(C)C)c(O)c(C(C)(C)C)c1",
    "outcome": "inactive"
  },
  {
    "smilesRecord": "NC(=O)N(O)[C@@H]1C=C[C@H](Oc2cccc(Oc3ccc(F)cc3)c2)C1",
    "outcome": "inactive"
  }
]

* * *

testSummary: APR_HepG2_P-H2AX_24hr: Apredica 24-hour HepG2 Assay for H2AX Phosphorylation (AID 2282920)
conditionDescription: high-content imaging, actives raise or lower the signal
The source made the active and inactive calls. How the source made its calls: active means hit-call score of the fitted dose curve at least 0.9, where 1 is the maximum; inactive means score below 0.9.
Pick one: active, inactive

[
  {
    "molecule": "CC(O)CO (stereo unspecified)",
    "answerLabel": "inactive"
  },
  {
    "molecule": "CC[C@H](C)[C@@H](C(=O)O)n1sc2ccccc2c1=O",
    "answerLabel": "inactive"
  },
  {
    "molecule": "CCCCCCCCCCCCCCCS(=O)(=O)Oc1ccccc1",
    "answerLabel": "inactive"
  },
  {
    "molecule": "CCCCC[C@H](O)CC(=O)CCc1ccc(O)c(OC)c1",
    "answerLabel": "inactive"
  },
  {
    "molecule": "Cc1cc(C)c(O)c(C)c1",
    "answerLabel": "inactive"
  },
  {
    "molecule": "NC(=O)N1C(=O)C(C(=O)c2cc(Cl)cs2)c2cc(F)c(Cl)cc21 (stereo unspecified)",
    "answerLabel": "active"
  }
]

Can you look up the reported call for `O=C(OCCOCCOC(=O)c1ccccc1)c1ccccc1` for me?
inactive

Now the molecule CCCCC(CC)COC(=O)CCCCC(=O)OCc1ccccc1 (stereo unspecified)
inactive

* * *

Read-out: Pro-epidermal growth factor (Homo sapiens)
testSummary: LTEA_HepaRG_EGF: Life Technologies and Expression Analysis (LTEA) Assay for Epidermal growth factor (EGF) using HepaRG (AID 2283489)
conditionDescription: mRNA level, 48 h; actives raise or lower the signal
Active and inactive are the calls of the source. Rule for the calls: active = hit-call score of the fitted dose curve at least 0.9, where 1 is the maximum; inactive = score below 0.9.
Respond using exactly one of the listed classes: active, inactive

[
  {
    "compound": "NC(=O)N1C(=O)C(C(=O)c2cc(Cl)cs2)c2cc(F)c(Cl)cc21 (stereo unspecified)",
    "answerLabel": "active"
  },
  {
    "compound": "CCCCCCCC(=O)O",
    "answerLabel": "inactive"
  },
  {
    "compound": "ClC1=C(Cl)C(Cl)(Cl)C(Cl)=C1Cl",
    "answerLabel": "inactive"
  },
  {
    "compound": "CC1=C(/C=C/C(C)=C/C=C/C(C)=C/C(=O)O)C(C)(C)CCC1",
    "answerLabel": "active"
  },
  {
    "compound": "CCCCC(CC)COC(=O)CCCCC(=O)OCC(CC)CCCC (stereo unspecified)",
    "answerLabel": "inactive"
  }
]

Field: next compound
Recorded test call requested for `c1ccc2c(c1)ccc1ccccc12`
inactive

* * *

Read-out: ABC Transporter (ABCB11), ABCB11 (gene 8647)
testSummary: LTEA_HepaRG_ABCB11: Life Technologies and Expression Analysis (LTEA) Assay for ABC Transporter (ABCB11) using HepaRG (AID 2283463)
conditionDescription: mRNA level, 48 h; actives raise or lower the signal
Procedure: LTEA_HepaRG is a cell based, multiplexed-readout assay that uses HepaRG, a human liver cell line, with measurements taken at 48 hours after chemical dosing on a 96-well plate.LTEA_HepaRG_ABCB11 is one of 102 assay component(s) measured in the LTEA HepaRG cell culture assay. It is a marker of Steatosis/NR mediated transport.Data from the assay component LTEA_HepaRG_ABCB11 was analyzed into 1 endpoint. […]
Calls of active or inactive are those of the source. Rule for the calls: active = hit-call score of the fitted dose curve at least 0.9, where 1 is the maximum; inactive = score below 0.9.
Pick one and only one: 1 = active, 0 = inactive

[
  {
    "molecule": "O=[N+]([O-])c1ccc(O)cc1",
    "answerLabel": 0
  }
]

// next entry
What was the test verdict on `CCCCCCCC(=O)O` ?
0
